Source: patent US20120142771A1

# Tested on: maximum electroshock seizure (MES) model
# Run description: Maximum electroshock seizure (MES) model test
# Assay type: in vivo, mice
# Test conditions: Mus musculus, po, 1 h, 100 mg/kg oral, Slc: ddY male mice, 3 per group, electrical stimulation 1 hour after administration; inhibition of hind limb extension; read-out: MES (positive number/tested number) (converted)
# Source text: In order to evaluate the antiepileptic activity of each drug, maximum electroshock seizure (MES) model, subcutaneously pentetrazol-injected model (scPTZ), and amygdala kindling model in rats were used because they show a good clinical prediction. Test 1: Test with Maximum Electroshock Seizure (MES) Model Test 1 evaluates the anticonvulsant action of medicaments. Animal model used herein represents the clinical phenotypes of generalized tonic seizure and secondarily generalized tonic-clonic seizure. […]
Examples of molecules with documented responders at 100 mg/kg follow.
Respond with the bare value in %.

>  <Molecule>
CNC(=O)Cc1ccccc1-c1ccc(Br)cc1

>  <responders at 100 mg/kg [%]>
100

$$$$
>  <Molecule>
NC(=O)Cc1ccccc1-c1cc(OC(F)(F)F)ccc1F

>  <responders at 100 mg/kg [%]>
100

$$$$
>  <Molecule>
NC(=O)Cc1cc(C(F)(F)F)ccc1-c1ccccc1

>  <responders at 100 mg/kg [%]>
0

$$$$
>  <Molecule>
NC(=O)Cc1ccccc1-c1ccc(C(F)(F)F)cc1Cl

>  <responders at 100 mg/kg [%]>
66.7

$$$$
>  <Molecule>
CNC(=O)Cc1ccccc1-c1ccc(F)cc1C(F)(F)F

>  <responders at 100 mg/kg [%]>
100

$$$$

Query block: For the molecule NC(=O)Cc1ccccc1-c1ccc(Cl)c(C(F)(F)F)c1 , what responders at 100 mg/kg is on record?
Result block: 100

Query block: Reported responders at 100 mg/kg, molecule NC(=O)Cc1ccccc1-c1ccc(Cl)cc1Cl [Example 78, 2-(2′,4′-dichlorobiphenyl-2-yl)acetamide] : ____
Result block: 100

Query block: Give the measured responders at 100 mg/kg of NC(=O)Cc1ccccc1-c1ccc(C(F)(F)F)cc1 .
Result block: 100

Query block: Can you share its responders at 100 mg/kg? I mean this molecule: NC(=O)C(O)c1ccccc1-c1cc(F)ccc1F (stereo not shown)
Result block: 100

Query block: // lookup responders at 100 mg/kg for NC(=O)Cc1cc(Cl)ccc1-c1ccc(F)cc1
Result block: 100

====

responders at 100 mg/kg values by entry
# System: maximum electroshock seizure (MES) model
# Run description: Maximum electroshock seizure (MES) model test
# Type: in vivo, mice
# Test conditions: Mus musculus, po, 1 h, 100 mg/kg oral, Slc: ddY male mice, 3 per group, electrical stimulation 1 hour after administration; inhibition of hind limb extension; read-out: MES (positive number/tested number) (converted)
Write the value in % as a bare number.

Query block: Fill in: responders at 100 mg/kg of CNC(=O)Cc1cc(F)ccc1-c1ccc(F)cc1 [Example 115] is ___
Result block: 100

Query block: Given the entry NC(=O)Cc1ccc(F)cc1-c1cc(Cl)cc(Cl)c1 [Example 150] , report its measured responders at 100 mg/kg.
Result block: 100

Query block: For the compound shown here, NC(=O)Cc1ccccc1-c1ccc(Br)cc1 [Example 49, 2-(4′-Bromobiphenyl-2-yl)acetamide] , give the reported responders at 100 mg/kg.
Result block: 66.7

Query block: // lookup responders at 100 mg/kg for CNC(=O)Cc1cc(C(F)(F)F)ccc1-c1ccc(Cl)cc1 [Example 138]
Result block: 0

Query block: Endpoint output: responders at 100 mg/kg of CNC(=O)Cc1ccccc1-c1ccccc1F [Example 28] . Value?
Result block: 100

Query block: Would you mind telling me what responders at 100 mg/kg value was observed for NC(=O)Cc1ccccc1-c1cccc(F)c1F [Example 20, 2-(2′,3′-difluorobiphenyl-2-yl)acetamide] ?
Result block: 100

Query block: I would be grateful if you could share the reported responders at 100 mg/kg for NC(=O)Cc1ccccc1-c1cc(F)ccc1Cl [Example 88] .
Result block: 100

Query block: Item NC(=O)Cc1ccc(F)cc1-c1cccc(Cl)c1 [Example 43] has what recorded responders at 100 mg/kg?
Result block: 66.7

Query block: Query: responders at 100 mg/kg; subject: NC(=O)Cc1cc(OC(F)(F)F)ccc1-c1ccccc1 [Example 34]
Result block: 0

Query block: Any idea what its responders at 100 mg/kg is? The compound is CCNC(=O)Cc1ccccc1-c1cccc(F)c1 [Example 27]
Result block: 100

Query block: Any idea what its responders at 100 mg/kg is? The compound is NC(=O)C(O)c1cc(F)ccc1-c1cc(Cl)cc(Cl)c1 (centres unmarked) [Example 189]
Result block: 66.7

====

# Tested on: maximum electroshock seizure (MES) model
# Run description: Maximum electroshock seizure (MES) model test
# Format: in vivo, mice
# Test conditions: Mus musculus, po, 1 h, 100 mg/kg oral, Slc: ddY male mice, 3 per group, electrical stimulation 1 hour after administration; inhibition of hind limb extension; read-out: MES (positive number/tested number) (converted)
Reported property: responders at 100 mg/kg (%)
The figure you give is taken to be in %; do not add the unit.

>  <Compound>
N#Cc1c(-c2ccccc2CC(N)=O)cccc1C(F)(F)F [Example 108]

>  <Assayed target>
maximum electroshock seizure (MES) model

>  <Units text>
%

>  <responders at 100 mg/kg>
0

$$$$

Query block: Can you look up the measured responders at 100 mg/kg of NC(=O)Cc1ccccc1-c1cc(F)c(F)c(F)c1 [Example 90] for me?
Result block: 66.7

Query block: Could you share which responders at 100 mg/kg value was measured for NC(=O)Cc1ccccc1-c1cccc(F)c1 [Example 25, 2-(3′-fluorobiphenyl-2-yl)acetamide] ?
Result block: 100

Query block: For CNC(=O)Cc1ccccc1-c1cccc(C(F)(F)F)c1F [Example 98] , what is its reported responders at 100 mg/kg?
Result block: 66.7

Query block: Item CNC(=O)Cc1ccc(F)cc1-c1ccccc1F [Example 42] has what recorded responders at 100 mg/kg?
Result block: 33.3

Query block: Look at this compound and give its reported responders at 100 mg/kg. CNC(=O)Cc1ccccc1-c1cccc(C)c1 [Example 31]
Result block: 0

Query block: Look up responders at 100 mg/kg: NC(=O)Cc1ccccc1-c1cccc(Cl)c1 [Example 13, 2-(3′-chlorobiphenyl-2-yl)acetamide]
Result block: 100

Query block: Which responders at 100 mg/kg is reported for this compound? CNC(=O)C1(c2ccccc2-c2cccc(F)c2)CC1 [Example 159]
Result block: 66.7

Query block: Sample CNC(=O)Cc1ccc(Cl)cc1-c1cccc(Cl)c1 [Example 128] — what was its responders at 100 mg/kg?
Result block: 66.7

====

Entries and their responders at 50 mg/kg
# Tested on: subcutaneously pentetrazol-injected model (scPTZ)
# Run description: Subcutaneously pentetrazol-injected model (scPTZ) test
# Type: in vivo, mice
# Test conditions: Mus musculus, po, 1 h, 50 mg/kg oral, Slc: ddY male mice, 3 per group, pentetrazol 85 mg/kg s.c. after 1 hour, observed 30 minutes for clonic convulsion; read-out: scPTZ (positive number/tested number) (converted)
Give the number; % is assumed, so skip it.

>  <Compound>
CNC(=O)C(C)c1ccccc1-c1ccccc1 (stereo not shown) [Example 57, 2-(biphenyl-2-yl)-N-methyl propanamide]

>  <Units text>
%

>  <responders at 50 mg/kg>
66.7

$$$$
>  <Compound>
NC(=O)Cc1ccc(C(F)(F)F)cc1-c1cccc(F)c1

>  <Units text>
%

>  <responders at 50 mg/kg>
0

$$$$
>  <Compound>
NC(=O)C(O)c1ccc(F)cc1-c1cccc(F)c1 (stereo not shown)

>  <Units text>
%

>  <responders at 50 mg/kg>
0

$$$$
>  <Compound>
NC(=O)C(O)c1ccccc1-c1ccccc1Cl (single isomer, unassigned) [Example 220]

>  <Units text>
%

>  <responders at 50 mg/kg>
33.3

$$$$

Query block: Given the entry CNC(=O)Cc1ccccc1-c1ccccc1F , what responders at 50 mg/kg was observed with subcutaneously pentetrazol-injected model (scPTZ)?
Result block: 0

====

# Tested on: subcutaneously pentetrazol-injected model (scPTZ)
# Run description: Subcutaneously pentetrazol-injected model (scPTZ) test
# Assay type: in vivo, mice
# Test conditions: Mus musculus, po, 1 h, 50 mg/kg oral, Slc: ddY male mice, 3 per group, pentetrazol 85 mg/kg s.c. after 1 hour, observed 30 minutes for clonic convulsion; read-out: scPTZ (positive number/tested number) (converted)
responders at 50 mg/kg values by entry
Respond numerically; units are % and should not be typed.

Example compounds with recorded responders at 50 mg/kg:
>  <Compound>
NC(=O)C(O)c1ccccc1-c1cc(Cl)ccc1F (stereo not shown)

>  <Measured value>
33.3

$$$$
>  <Compound>
NC(=O)Cc1ccccc1-c1ccc(OC(F)(F)F)cc1

>  <Measured value>
33.3

$$$$
>  <Compound>
NC(=O)Cc1ccccc1-c1ccc(Cl)c(C(F)(F)F)c1

>  <Measured value>
33.3

$$$$
>  <Compound>
CNC(=O)C(OC)c1ccccc1-c1ccccc1F (stereo not shown)

>  <Measured value>
33.3

$$$$
>  <Compound>
NC(=O)Cc1ccccc1-c1ccc(F)c(F)c1 [Example 21, 2-(3′,4′-difluorobiphenyl-2-yl)acetamide]

>  <Measured value>
0

$$$$

Query block: Any idea what its responders at 50 mg/kg is? The compound is NC(=O)C1(c2ccccc2-c2ccccc2)CC1
Result block: 0

Query block: Entry NC(=O)C(O)c1cc(F)ccc1-c1cccc(F)c1 (stereo not shown) has what responders at 50 mg/kg?
Result block: 0

Query block: # query: responders at 50 mg/kg of entry NC(=O)Cc1ccccc1-c1cccc(Cl)c1 [Example 13, 2-(3′-chlorobiphenyl-2-yl)acetamide]
Result block: 100

Query block: What responders at 50 mg/kg value was documented for this compound, NC(=O)Cc1ccc(F)cc1-c1ccccc1 [Example 39, 2-(5-fluorobiphenyl-2-yl)acetamide] ?
Result block: 33.3

Query block: What measured responders at 50 mg/kg goes with NC(=O)Cc1ccccc1-c1cc(F)cc(F)c1 [Example 153, 2-(3′,5′-difluorobiphenyl-2-yl)acetamide] ?
Result block: 0

Query block: Can you share its responders at 50 mg/kg? I mean this compound: CN(C)C(=O)Cc1ccccc1-c1ccccc1C(F)(F)F
Result block: 0

Query block: Given CNC(=O)Cc1ccc(Cl)cc1-c1ccccc1F , state its recorded responders at 50 mg/kg.
Result block: 66.7

Query block: # query: responders at 50 mg/kg of entry NC(=O)Cc1cc(OC(F)(F)F)ccc1-c1ccccc1
Result block: 33.3
